Origin of values: paper PMC5473928

biological target: KRasWT (Homo sapiens, UniProt P01116); construct: His6 (cleaved yes); made in house; test: Stopped-flow competition binding of nucleotides to nucleotide-free KRas (mantdGDP or mantdGDPβMe fluorescence, global fit)
pKd: −log10 of the molar value.
measured-parameter: pKd

- COP(=O)(O)OP(=O)(O)OCC1OC(n2cnc3c(=O)[nH]c(N)nc32)C(O)C1O (stereo not drawn) [GDPβMe, β-methyl ester of GDP]: 6.89

---

biological target: KRasWT (Homo sapiens); construct: His6 (cleaved yes); made in house; assay: Stopped-flow competition binding of nucleotides to nucleotide-free KRas (mantdGDP or mantdGDPβMe fluorescence, global fit); conditions: read-out: Kd
Below, each entry is listed alongside its reported Kd.
measured-parameter: Kd

- Nc1nc2c(ncn2COCCOP(=O)(O)OP(=O)(O)OP(=O)(O)O)c(=O)[nH]1 [acyclovir triphosphate]: 8.5 nM
- Nc1nc2c(ncn2C2OC(COP(=O)(O)OP(=O)(O)O)C(O)C2O)c(=O)[nH]1 (centres unmarked): 0.02 nM
